# Target Desc: T1, 4H1985-bH
# T1 chain: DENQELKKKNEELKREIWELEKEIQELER
# Assay Protocol: two-hybrid library CCNG1;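 further: natural log of median RNA to DNA barcode read ratio; higher means stronger binding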
In plain terms, low interaction score, meaning strictly below 0.5, gives 1 (yes), and everything else gives 0 (no).

For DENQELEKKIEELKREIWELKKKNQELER [4H1359-bH] , is the recorded interaction score below the cut-off of 0.5?
0 (no)

Record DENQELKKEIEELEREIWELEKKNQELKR [4H1544-bH] : is its interaction score strictly below 0.5?
0 (no)

Say whether its interaction score is strictly beneath 0.5. Entry: DENQELKKKIEELEREIWELKKENQELKR [4H1804-bH]
1 (yes)

Lab note: confirm whether the reported interaction score for this binder is below 0.5, equality not counting. binder: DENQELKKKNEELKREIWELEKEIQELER [4H1985-bH]
1 (yes)

Is it true that interaction score reported for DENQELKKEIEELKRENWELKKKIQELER [4H1629-bH] is less than 0.5?
1 (yes)

Quick check: interaction score of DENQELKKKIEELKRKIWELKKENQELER [4H1899-bH] under 0.5?
0 (no)

Strictly below 0.5 in interaction score? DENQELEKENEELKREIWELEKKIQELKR [4H1222-bH]
0 (no)

Lab log: compare recorded interaction score with 0.5; is it strictly lower for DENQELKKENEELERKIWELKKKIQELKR [4H1710-bH] ?
1 (yes)

Quick check: does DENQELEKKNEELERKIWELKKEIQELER [4H1449-bH] have interaction score under 0.5?
1 (yes)

Criterion: interaction score strictly below 0.5. Is it met by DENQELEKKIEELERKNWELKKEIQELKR [4H1338-bH] ?
1 (yes)

Just wondering, is interaction score of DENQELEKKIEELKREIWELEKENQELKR [4H1348-bH] below 0.5?
0 (no)

Field: below-cutoff. Rule: recorded interaction score strictly less than 0.5. Subject: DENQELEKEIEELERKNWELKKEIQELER [4H1081-bH]
1 (yes)
